experimental protocol: in vivo
measurement context: Sprague-Dawley, rat, plasma, po, 5 mg/kg
Description: Clearance in Sprague-Dawley rat plasma at 5 mg/kg, po measured upto 24 hrs by LC-MS/MS analysis
Cut-off 20 mL/min/kg on CL/F at 24 h, inclusive. At or above means yes; below means no.

Take a look at these entries with their results.
>>> print(df.to_string())
                              smiles_string  category
0  Cc1cnc(-c2cnn(C)c2)cc1Nc1ncc2c(n1)n(C1CCOCC1)c(=O)n2C        no
1  Cc1cc(-c2cnn(C(F)F)c2)ncc1Nc1ncc2c(n1)n(C1CCOCC1)c(=O)n2C        no

Q: Does Cc1cc(-c2ccc(C=O)o2)ncc1Nc1ncc2c(n1)n(C1CCOCC1)c(=O)n2C have a reported CL/F at 24 h of at least 20 mL/min/kg?
Ans: yes

Q: Does COc1ccc(-c2cc(C)c(Nc3ncc4c(n3)n(C3CCOCC3)c(=O)n4C)cn2)cc1OC have a reported CL/F at 24 h of at least 20 mL/min/kg?
Ans: yes

Q: Does COc1ccc(-c2cc(C)c(Nc3ncc4c(n3)n(C3CCOCC3)c(=O)n4C)cn2)cn1 have a reported CL/F at 24 h of at least 20 mL/min/kg?
Ans: no

---

measured target: DNA-dependent protein kinase catalytic subunit (Homo sapiens)
Sequence (P78527 whole entry): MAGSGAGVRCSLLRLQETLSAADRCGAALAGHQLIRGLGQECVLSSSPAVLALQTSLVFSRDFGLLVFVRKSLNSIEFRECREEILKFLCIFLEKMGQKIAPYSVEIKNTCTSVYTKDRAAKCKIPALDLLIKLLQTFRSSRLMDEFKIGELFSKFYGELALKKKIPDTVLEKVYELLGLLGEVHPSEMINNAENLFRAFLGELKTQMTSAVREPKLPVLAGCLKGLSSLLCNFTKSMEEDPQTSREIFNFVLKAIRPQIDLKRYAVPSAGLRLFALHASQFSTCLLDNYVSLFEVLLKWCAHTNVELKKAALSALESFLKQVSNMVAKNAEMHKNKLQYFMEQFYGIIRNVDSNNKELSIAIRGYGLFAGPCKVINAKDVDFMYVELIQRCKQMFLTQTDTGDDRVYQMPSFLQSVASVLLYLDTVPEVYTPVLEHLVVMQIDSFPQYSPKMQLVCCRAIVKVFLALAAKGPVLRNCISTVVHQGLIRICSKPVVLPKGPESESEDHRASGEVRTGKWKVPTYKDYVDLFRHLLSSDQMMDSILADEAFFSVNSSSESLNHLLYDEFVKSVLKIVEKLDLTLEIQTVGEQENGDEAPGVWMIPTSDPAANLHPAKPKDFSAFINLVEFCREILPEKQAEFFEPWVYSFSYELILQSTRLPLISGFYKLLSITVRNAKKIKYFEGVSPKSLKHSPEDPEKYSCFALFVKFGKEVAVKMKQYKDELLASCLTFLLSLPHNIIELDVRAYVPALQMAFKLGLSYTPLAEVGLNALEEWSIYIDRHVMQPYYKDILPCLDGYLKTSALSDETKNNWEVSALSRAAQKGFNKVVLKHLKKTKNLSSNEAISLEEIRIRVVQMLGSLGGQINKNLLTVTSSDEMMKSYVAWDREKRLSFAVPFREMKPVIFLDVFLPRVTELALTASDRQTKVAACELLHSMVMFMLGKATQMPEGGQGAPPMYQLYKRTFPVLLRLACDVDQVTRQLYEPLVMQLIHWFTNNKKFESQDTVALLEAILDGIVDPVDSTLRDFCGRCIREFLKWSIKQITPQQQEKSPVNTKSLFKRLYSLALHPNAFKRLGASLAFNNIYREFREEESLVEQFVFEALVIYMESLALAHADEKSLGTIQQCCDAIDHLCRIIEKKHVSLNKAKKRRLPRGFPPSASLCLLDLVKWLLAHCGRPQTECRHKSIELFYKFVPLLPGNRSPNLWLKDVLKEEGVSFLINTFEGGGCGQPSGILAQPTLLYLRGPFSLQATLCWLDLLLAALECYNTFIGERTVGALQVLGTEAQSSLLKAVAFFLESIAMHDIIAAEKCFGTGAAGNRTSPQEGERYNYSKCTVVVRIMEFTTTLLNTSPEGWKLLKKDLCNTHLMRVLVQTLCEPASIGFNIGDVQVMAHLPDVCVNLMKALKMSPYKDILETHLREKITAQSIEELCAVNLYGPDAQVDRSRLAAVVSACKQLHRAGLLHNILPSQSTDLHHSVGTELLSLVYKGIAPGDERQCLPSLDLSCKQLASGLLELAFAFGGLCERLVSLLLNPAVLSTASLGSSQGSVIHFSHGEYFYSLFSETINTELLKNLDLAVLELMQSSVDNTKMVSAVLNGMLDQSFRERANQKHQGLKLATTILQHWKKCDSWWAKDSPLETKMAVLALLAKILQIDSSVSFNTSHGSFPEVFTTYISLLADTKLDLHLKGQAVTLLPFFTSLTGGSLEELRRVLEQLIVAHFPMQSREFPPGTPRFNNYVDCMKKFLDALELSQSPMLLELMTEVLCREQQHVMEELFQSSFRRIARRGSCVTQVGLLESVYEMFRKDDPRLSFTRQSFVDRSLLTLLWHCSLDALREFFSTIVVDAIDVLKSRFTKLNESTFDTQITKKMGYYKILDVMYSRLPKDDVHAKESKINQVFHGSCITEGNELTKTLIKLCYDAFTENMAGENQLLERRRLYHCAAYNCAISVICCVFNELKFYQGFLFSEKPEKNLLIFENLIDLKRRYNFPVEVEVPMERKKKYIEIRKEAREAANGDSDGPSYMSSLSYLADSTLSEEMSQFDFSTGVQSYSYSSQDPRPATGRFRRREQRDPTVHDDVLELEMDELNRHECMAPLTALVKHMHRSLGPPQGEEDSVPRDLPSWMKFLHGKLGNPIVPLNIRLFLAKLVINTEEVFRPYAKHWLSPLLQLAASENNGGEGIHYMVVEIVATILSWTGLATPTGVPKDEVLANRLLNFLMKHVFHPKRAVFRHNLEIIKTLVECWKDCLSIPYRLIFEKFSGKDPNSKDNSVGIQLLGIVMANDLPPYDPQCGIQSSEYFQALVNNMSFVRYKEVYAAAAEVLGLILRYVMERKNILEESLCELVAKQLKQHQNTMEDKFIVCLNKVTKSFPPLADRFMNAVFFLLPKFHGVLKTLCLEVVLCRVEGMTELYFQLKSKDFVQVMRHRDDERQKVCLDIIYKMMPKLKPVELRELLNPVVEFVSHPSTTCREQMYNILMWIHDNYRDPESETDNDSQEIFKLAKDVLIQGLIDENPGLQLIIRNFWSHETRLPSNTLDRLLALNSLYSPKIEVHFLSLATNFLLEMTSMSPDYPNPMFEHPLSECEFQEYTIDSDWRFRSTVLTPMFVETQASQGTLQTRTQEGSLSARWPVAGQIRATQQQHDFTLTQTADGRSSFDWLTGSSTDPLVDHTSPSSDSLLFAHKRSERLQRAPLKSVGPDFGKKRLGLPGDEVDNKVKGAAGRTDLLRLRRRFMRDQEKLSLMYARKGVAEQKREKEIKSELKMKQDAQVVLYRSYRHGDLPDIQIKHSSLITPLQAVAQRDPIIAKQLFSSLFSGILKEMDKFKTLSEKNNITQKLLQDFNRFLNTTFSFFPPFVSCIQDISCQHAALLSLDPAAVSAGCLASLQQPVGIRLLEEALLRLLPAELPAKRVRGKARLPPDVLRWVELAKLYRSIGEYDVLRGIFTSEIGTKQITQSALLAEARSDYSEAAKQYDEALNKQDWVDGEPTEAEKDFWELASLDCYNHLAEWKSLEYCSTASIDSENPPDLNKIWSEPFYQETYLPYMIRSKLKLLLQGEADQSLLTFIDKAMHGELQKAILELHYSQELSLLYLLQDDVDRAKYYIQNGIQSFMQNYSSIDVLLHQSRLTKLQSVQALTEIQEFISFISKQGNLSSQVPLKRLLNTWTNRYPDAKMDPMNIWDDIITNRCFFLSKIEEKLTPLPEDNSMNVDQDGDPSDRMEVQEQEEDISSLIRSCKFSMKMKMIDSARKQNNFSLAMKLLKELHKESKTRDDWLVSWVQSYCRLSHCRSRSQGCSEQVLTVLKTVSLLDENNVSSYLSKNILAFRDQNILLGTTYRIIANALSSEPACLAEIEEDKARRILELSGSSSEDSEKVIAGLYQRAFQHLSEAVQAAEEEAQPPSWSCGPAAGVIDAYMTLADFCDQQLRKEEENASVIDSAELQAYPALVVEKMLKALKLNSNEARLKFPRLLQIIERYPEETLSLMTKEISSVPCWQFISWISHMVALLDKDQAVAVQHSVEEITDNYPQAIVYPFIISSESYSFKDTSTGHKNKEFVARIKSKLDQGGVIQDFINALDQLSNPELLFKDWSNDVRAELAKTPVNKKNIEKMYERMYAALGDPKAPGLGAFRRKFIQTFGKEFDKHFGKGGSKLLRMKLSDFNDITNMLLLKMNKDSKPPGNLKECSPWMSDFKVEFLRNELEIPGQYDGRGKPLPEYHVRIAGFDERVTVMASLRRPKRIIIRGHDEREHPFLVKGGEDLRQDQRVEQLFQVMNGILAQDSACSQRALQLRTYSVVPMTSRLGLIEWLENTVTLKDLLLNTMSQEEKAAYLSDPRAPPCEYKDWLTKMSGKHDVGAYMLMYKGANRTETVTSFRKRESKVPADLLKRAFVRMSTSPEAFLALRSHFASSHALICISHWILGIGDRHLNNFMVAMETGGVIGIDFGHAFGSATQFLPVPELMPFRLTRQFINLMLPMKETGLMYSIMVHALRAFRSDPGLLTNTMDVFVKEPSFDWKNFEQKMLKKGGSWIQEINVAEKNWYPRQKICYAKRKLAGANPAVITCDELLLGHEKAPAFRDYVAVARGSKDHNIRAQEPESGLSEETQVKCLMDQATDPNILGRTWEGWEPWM
pIC50: −log10 of the molar value.
Cut-off 9 on pIC50, inclusive. At or above means 1; below means 0.

In [3]: df
Out[3]:
                              smiles_string                           measured_target  category
0  Cn1cc(-c2ccc3c(c2)CCN3c2ncc3c(n2)n(C2CCOCC2)c(=O)n3C)cn1  DNA-dependent protein kinase catalytic subunit (Homo sapiens)         0
1  Cc1cc(-c2ccnn2C)ncc1Nc1ncc2c(n1)n(C1CCOCC1)c(=O)n2C  DNA-dependent protein kinase catalytic subunit (Homo sapiens)         0
2  Cc1cc(-c2cnn(C(F)F)c2)ncc1Nc1ncc2c(n1)n(C1CCOCC1)c(=O)n2C  DNA-dependent protein kinase catalytic subunit (Homo sapiens)         1

Here is another molecule to look at.
Q: Does Cc1ncc(-c2cnn(C)c2)cc1Nc1ncc2c(n1)n(C1CCOCC1)c(=O)n2C have a reported pIC50 of at least 9?
Ans: 0

---

Each entry below carries its measured IC50, system: DNA-dependent protein kinase catalytic subunit (Homo sapiens).
Provide the reading as a plain figure in nM.

Examples with their reported IC50 follow.
                              smiles_string  recorded_endpoint  units_symbol  observed_result
0  Cc1cc(-c2cnn(C)c2)ncc1Nc1ncc2c(n1)n(C1CCN(S(C)(=O)=O)CC1)c(=O)n2C               IC50            nM                1
1  COc1ccc(-c2cc(C)c(Nc3ncc4c(n3)n(C3CCOCC3)c(=O)n4C)cn2)cc1OC               IC50            nM                1
2  Cc1cc(-c2cnn(C)c2)ncc1Nc1ncc2c(n1)n(C1CCNCC1)c(=O)n2C               IC50            nM              0.9

Q: Could you share which IC50 value was measured for CC(=O)N1CCC(n2c(=O)n(C)c3cnc(Nc4cnc(-c5cnn(C)c5)cc4C)nc32)CC1 ?
Ans: 1
